protocol: Rat pharmacokinetic studies, intramuscular administration
Type: in vivo, male Sprague Dawley Rats
measurement.context: male, Sprague Dawley, rat, plasma, im; 17 mg/kg, Sesame oil + 1% Benzyl Alcohol; read-out: AUC0-inf (ng · h/mL) prodrug
observable: AUC(0-inf)
Write the numeric value and follow it with the unit.

Name the reported AUC(0-inf) value associated with the molecule C=C1CC[C@@]2(O)C3Cc4ccc(OC(=O)CCCCCCCCCCC)c5c4[C@@]2(CCN3CC2CC2)[C@H]1O5 [Compound 59, reference compound]
10.4 ng·h/mL

----------
protocol: Dog pharmacokinetic studies, deep intramuscular administration
Format: in vivo, Beagle dogs
measurement.context: Beagle, dog, plasma, im, 48 mg/kg, IM 48 mg/kg (shallow), Cottonseed + 1% Benzyl Alcohol; read-out: AUC0-inf (ng · h/mL) prodrug
observable: AUC(0-inf) (ng·h/mL)
A number alone suffices; assume ng·h/mL.

Name the reported AUC(0-inf) value associated with the molecule C=C1CC[C@@]2(O)C3Cc4ccc(OCOC(=O)OCCCCCCCCCCCC)c5c4[C@@]2(CCN3CC2CC2)[C@H]1O5
526

----------
protocol: Solubility determination in oil (Table 10)
measurement.context: 25 °C, oil or lipid, thermodynamic from solid, Approximate Solubility in Excipient: Sesame oil, Heating Temp. 60 °C, Obs. Temp. 25 °C
Readings of solubility at 24 h for the listed compounds

Known solubility at 24 h results, listed for orientation:
Name the reported solubility at 24 h value associated with the compound C=C1CC[C@@]2(O)C3Cc4ccc(OC(=O)OCCCCCCCCCCCC)c5c4[C@@]2(CCN3CC2CC2)[C@H]1O5
> 386 mg/mL

And the next one, CCCCCCCCCCCCOC(=O)OCOc1ccc2c3c1O[C@H]1C(=O)CC[C@@]4(O)C(C2)N(CC2CC2)CC[C@]314 ?
> 416 mg/mL

And the next one, C=C1CC[C@@]2(O)C3Cc4ccc(OC(=O)OCCCCCCCCCCCCCCC)c5c4[C@@]2(CCN3CC2CC2)[C@H]1O5 ?
> 410 mg/mL

And the next one, C=C1CC[C@@]2(O)C3Cc4ccc(OC(=O)CCCCCCC/C=C\C/C=C\CCCCC)c5c4[C@@]2(CCN3CC2CC2)[C@H]1O5 ?
80 to 102 mg/mL

And the next one, CCCCCCCC/C=C\CCCCCCCCCCCC(=O)Oc1ccc2c3c1O[C@H]1C(=O)CC[C@@]4(O)C(C2)N(CC2CC2)CC[C@]314 ?
67 to 80 mg/mL

And the next one, CCCCCCCCOC(=O)Oc1ccc2c3c1O[C@H]1C(=O)CC[C@@]4(O)C(C2)N(CC2CC2)CC[C@]314 ?
> 424 mg/mL

More entries:
Name the reported solubility at 24 h value associated with the compound C=C1CC[C@@]2(O)C3Cc4ccc(OCOC(=O)OCCCCCCCCCCCCCC)c5c4[C@@]2(CCN3CC2CC2)[C@H]1O5
> 404 mg/mL

----------
protocol: Solubility determination in oil (Table 10)
measurement.context: 40 °C, water, thermodynamic from solid, Equilibrium solubility: Water, Heating Temp. 40 °C, Obs. Temp. 40 °C
observable: solubility thermodynamic

Known solubility thermodynamic results, listed for orientation:
Name the reported solubility thermodynamic value associated with the molecule C=C1CC[C@@]2(O)C3Cc4ccc(OCOC(=O)CCCCCCCCCCCCCCC)c5c4[C@@]2(CCN3CC2CC2)[C@H]1O5
< 1 µg/mL

And the next one, CCCCCCCCCCCCOC(=O)OCOc1ccc2c3c1O[C@H]1C(=O)CC[C@@]4(O)C(C2)N(CC2CC2)CC[C@]314 ?
< 1 µg/mL

The record that follows has no solubility thermodynamic shown yet.
Name the reported solubility thermodynamic value associated with the molecule CCCCCCCCCCCCCCCC(=O)OCOc1ccc2c3c1O[C@H]1C(=O)CC[C@@]4(O)C(C2)N(CC2CC2)CC[C@]314
28 µg/mL
